Experiment: Decomposition of pseudomonic acid during the process of preparing the calcium salt
Type: physicochemical
Conditions: before / after preparation of the calcium salt; unit assumed
Protocol: The calcium pseudomonate solution was prepared by a slow addition of solid calcium hydroxide to a suspension of pseudomonic acid in water. The calcium salt formed is gradually dissolved. The almost clear solution is filtered and frozen. Pseudomonic acid (100 gr.) is suspended in water (1000 ml). […] The product obtained is crushed and milled to give amorphous calcium pseudomonate in quantitative yield.
The molecules listed here are annotated with their Related Substances (from process) P.A. B.
Dear colleague, please return just the value in %, with no unit written.

C/C(=C\C(=O)OCCCCCCCCC(=O)O)C[C@@H]1OC[C@H](C[C@@H]2O[C@H]2[C@@H](C)[C@H](C)O)[C@@H](O)[C@H]1O : 0.57

# evaluate next
Prompt: Data request, read-out Related Substances (from process) P.A. B, for C/C(=C\C(=O)OCCCCCCCCC(=O)[O-])C[C@@H]1OC[C@H](C[C@@H]2O[C@H]2[C@@H](C)[C@H](C)O)[C@@H](O)[C@H]1O.C/C(=C\C(=O)OCCCCCCCCC(=O)[O-])C[C@@H]1OC[C@H](C[C@@H]2O[C@H]2[C@@H](C)[C@H](C)O)[C@@H](O)[C@H]1O.[Ca+2] [amorphous calcium pseudomonate, calcium pseudomonate]
Completion: 0.4

----------
test: Stability on storage (related substances and decomposition products); format: physicochemical; settings: t = 18 months (at 2-8° C.); unit assumed
observedProperty: Related Substances (from process) P.A. B (%)
Dear colleague, please return just the value in %, with no unit written.

Prompt: Data request, read-out Related Substances (from process) P.A. B, for C/C(=C\C(=O)OCCCCCCCCC(=O)[O-])C[C@@H]1OC[C@H](C[C@@H]2O[C@H]2[C@@H](C)[C@H](C)O)[C@@H](O)[C@H]1O.C/C(=C\C(=O)OCCCCCCCCC(=O)[O-])C[C@@H]1OC[C@H](C[C@@H]2O[C@H]2[C@@H](C)[C@H](C)O)[C@@H](O)[C@H]1O.[Ca+2] [amorphous calcium pseudomonate, calcium pseudomonate]
Completion: 0.18

----------
assay: Stability on storage (related substances and decomposition products); assay type: physicochemical; conditions: t = 18 months (at 2-8° C.); unit assumed
observedProperty: Related Substances (from process) P.A. D (%)
Dear colleague, please return just the value in %, with no unit written.

Prompt: Data request, read-out Related Substances (from process) P.A. D, for C/C(=C\C(=O)OCCCCCCCCC(=O)[O-])C[C@@H]1OC[C@H](C[C@@H]2O[C@H]2[C@@H](C)[C@H](C)O)[C@@H](O)[C@H]1O.C/C(=C\C(=O)OCCCCCCCCC(=O)[O-])C[C@@H]1OC[C@H](C[C@@H]2O[C@H]2[C@@H](C)[C@H](C)O)[C@@H](O)[C@H]1O.[Ca+2] [amorphous calcium pseudomonate, calcium pseudomonate]
Completion: 0.97

----------
assay: Stability on storage (related substances and decomposition products); assay type: physicochemical; conditions: t = 0; unit assumed
observedProperty: Related Substances (from process) P.A. D (%)
Dear colleague, please return just the value in %, with no unit written.

Prompt: Data request, read-out Related Substances (from process) P.A. D, for C/C(=C\C(=O)OCCCCCCCCC(=O)[O-])C[C@@H]1OC[C@H](C[C@@H]2O[C@H]2[C@@H](C)[C@H](C)O)[C@@H](O)[C@H]1O.C/C(=C\C(=O)OCCCCCCCCC(=O)[O-])C[C@@H]1OC[C@H](C[C@@H]2O[C@H]2[C@@H](C)[C@H](C)O)[C@@H](O)[C@H]1O.[Ca+2] [amorphous calcium pseudomonate, calcium pseudomonate]
Completion: 0.9
